# Tested on: HT-1080
# EXPERIMENT_SUMMARY: relative cell viability with RSL3 co-treatment (fraction of control); higher = stronger protection from RSL3-induced ferroptosis (higher viability)
# CONDITIONS_USED: 10 µM
Structures can show the parent of a compound that is named as a salt.
Threshold check on relative cell viability: strictly below 0.6 is 1.0; on or above 0.6 is 0.0.

MOLECULE: COc1ccc(-c2ccc3ncc4c(c3c2)n(-c2ccc(N3CCNCC3)c(C(F)(F)F)c2)c(=O)n4C)cn1
ASSAY_SYSTEM: HT-1080
DISCRETE_LABEL: 1.0

MOLECULE: CS(=O)(=O)CCNCc1ccc(-c2ccc3ncnc(Nc4ccc(OCc5cccc(F)c5)c(Cl)c4)c3c2)o1 [Lapatinib]
ASSAY_SYSTEM: HT-1080
DISCRETE_LABEL: 0.0

MOLECULE: O=C(Nc1cccnc1)c1cc(-c2ccnc(F)c2)ccc1OCc1ccccc1
ASSAY_SYSTEM: HT-1080
DISCRETE_LABEL: 0.0

MOLECULE: COc1ccc(S(=O)(=O)N(CCO)c2ccccc2CN(C)C/C=C/c2ccc(Cl)cc2)cc1 [KN-93 Phosphate]
ASSAY_SYSTEM: HT-1080
DISCRETE_LABEL: 0.0

MOLECULE: Cn1cc(C2=C(c3ccc(Cl)cc3Cl)C(=O)NC2=O)c2ccccc21
ASSAY_SYSTEM: HT-1080
DISCRETE_LABEL: 0.0

MOLECULE: O=C(Nc1ccc(OC(F)(F)F)cc1)c1sccc1NCc1ccnc2ccccc12
ASSAY_SYSTEM: HT-1080
DISCRETE_LABEL: 1.0

MOLECULE: CNC(=O)c1cccc(-c2ccc3c(N4CCOC[C@@H]4C)nc(N4CCOC[C@@H]4C)nc3n2)c1
ASSAY_SYSTEM: HT-1080
DISCRETE_LABEL: 1.0

MOLECULE: CCN(CC)CCCCNc1ncc2cc(-c3cc(OC)cc(OC)c3)c(NC(=O)NC(C)(C)C)nc2n1
ASSAY_SYSTEM: HT-1080
DISCRETE_LABEL: 0.0

MOLECULE: Clc1ccc(Nc2nnc(Cc3ccncc3)c3ccccc23)cc1 [Vatalanib (PTK787) 2HCl]
ASSAY_SYSTEM: HT-1080
DISCRETE_LABEL: 0.0

MOLECULE: CCS(=O)(=O)c1cccc(-c2cc(C(=O)NC3CCN(C)CC3)c(C)c3[nH]c4ncc(C)cc4c23)c1
ASSAY_SYSTEM: HT-1080
DISCRETE_LABEL: 1.0

MOLECULE: CN(C)C/C=C/C(=O)Nc1cc2c(Nc3ccc(F)c(Cl)c3)ncnc2cc1O[C@H]1CCOC1
ASSAY_SYSTEM: HT-1080
DISCRETE_LABEL: 0.0

MOLECULE: CNC(=O)c1cc(Oc2ccc(NC(=O)Nc3ccc(Cl)c(C(F)(F)F)c3)cc2)ccn1 [Sorafenib Tosylate]
ASSAY_SYSTEM: HT-1080
DISCRETE_LABEL: 1.0

MOLECULE: Nc1ncnc2c1c(-c1cnc3[nH]ccc3c1)nn2C1CCCC1
ASSAY_SYSTEM: HT-1080
DISCRETE_LABEL: 1.0

MOLECULE: C[C@@H]1COCCN1c1cc(C2([S@](C)(=N)=O)CC2)nc(-c2cc[nH]c3nccc2-3)n1
ASSAY_SYSTEM: HT-1080;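 note: viability read as CCK-8 absorbance at 450 nm in cells co-exposed to the GPX4 inhibitor RSL3, relative to a 0.01% DMSO vehicle control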
DISCRETE_LABEL: 0.0

# credit: the supplement of paper PMC9588786
